- Protocol Summary: Stability stress testing (ambient light, 40° C./75% RH, 80° C., 7 days; XRPD and HPLC purity)
- Type: physicochemical
- Condition Description: HPLC purity after 7 days, open vial, 80° C.
Catalogue of Purity, 80° C. values
Reply briefly: the number, and no unit.

Br.C=CC(=O)Nc1cc(Nc2ncc(C(=O)OC(C)C)c(-c3cn(C)c4ccccc34)n2)c(OC)cc1N(C)CCN(C)C; 99.5

Query C=CC(=O)Nc1cc(Nc2ncc(C(=O)OC(C)C)c(-c3cn(C)c4ccccc34)n2)c(OC)cc1N(C)CCN(C)C.Cc1ccc(S(=O)(=O)O)cc1 [Tosylate] yields Purity, 80° C. of 99.4

Query C=CC(=O)Nc1cc(Nc2ncc(C(=O)OC(C)C)c(-c3cn(C)c4ccccc34)n2)c(OC)cc1N(C)CCN(C)C.CS(=O)(=O)O [Mesylate] yields Purity, 80° C. of 99.6

Query C=CC(=O)Nc1cc(Nc2ncc(C(=O)OC(C)C)c(-c3cn(C)c4ccccc34)n2)c(OC)cc1N(C)CCN(C)C.O=C(O)/C=C/C(=O)O [Fumarate] yields Purity, 80° C. of 99.5

Query C=CC(=O)Nc1cc(Nc2ncc(C(=O)OC(C)C)c(-c3cn(C)c4ccccc34)n2)c(OC)cc1N(C)CCN(C)C [Free Base] yields Purity, 80° C. of 99.5
